Collected Final Seed Yield + % values appear next to each entry.
# Tested on: Soybean
# Assay Explanation: Soybean Trial 1, pot trial, foliar spray at V2-V3
# Format: in vivo
# Setup Conditions: soybean; increase over the line given as 0 (untreated or growth regulator alone)
// note: answer is a bare numeric in %

The examples below pair each entry with its known result.
# Compound, Final Seed Yield + % (%)
data = [
    ("CCOC(=O)C1CC(=O)C(=C(O)C2CC2)C(=O)C1 (centres unmarked) [MOD, Trinexapac-ethyl]", 0),
    ("CC1(C)CCC(Cc2ccc(Cl)cc2)C1(O)Cn1cncn1 (centres unmarked) [MET, Metconazole]", 0),
    ("CC(=O)Nc1ccc(O)cc1 [AC, N-(4-hydroxypheyl)acetamide]", 2),
    ("C[N+](C)(C)CCCl [CCC, Chlormequat chloride]", 0),
]

We next turn to a different compound, shown below.
Record CC1(C)CCC(Cc2ccc(Cl)cc2)C1(O)Cn1cncn1 (centres unmarked) [MET2, Metconazole] , field Final Seed Yield + %: 0
